assay.setup: 298.15 K; 101.33 kPa; Liquid; Vibrating tube method
parameter: mass density (kg/m3)
Express it in kg/m3; write the number only.

[in] For the molecule shown here, Cc1cccc(C)c1 [1,3-dimethylbenzene] , give the reported mass density.
[out] 859.4

[in] For the molecule shown here, Cc1ccc(C)cc1 [1,4-dimethylbenzene] , give the reported mass density.
[out] 856.1

[in] For the molecule shown here, CC(C)c1ccccc1 [isopropylbenzene] , give the reported mass density.
[out] 857.1

[in] For the molecule shown here, Cc1ccccc1C [1,2-dimethylbenzene] , give the reported mass density.
[out] 875.2

[in] For the molecule shown here, CC(=O)CC(C)C [4-methylpentan-2-one] , give the reported mass density.
[out] 796
